Target: T1, monkey MSLN on HEK293T-monkey MSLN recombinant cells (monkey)
T1 construct: Full-length precursor as transfected; processing on the cell is not described; also called HEK293-monkey MSLN
T1 chain: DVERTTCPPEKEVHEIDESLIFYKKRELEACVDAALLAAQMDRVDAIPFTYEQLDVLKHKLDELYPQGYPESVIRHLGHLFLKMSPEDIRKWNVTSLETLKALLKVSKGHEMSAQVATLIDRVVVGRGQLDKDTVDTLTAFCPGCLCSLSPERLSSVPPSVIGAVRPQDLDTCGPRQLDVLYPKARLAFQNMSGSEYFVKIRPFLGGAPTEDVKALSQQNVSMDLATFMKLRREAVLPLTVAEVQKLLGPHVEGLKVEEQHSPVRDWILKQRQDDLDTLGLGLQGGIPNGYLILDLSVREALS
Assay: FACS, HEK293T-monkey MSLN cells
Labels assigned by EC50 range: c1 (below 4 nM), c2 (4 nM to below 5 nM), c3 (5 nM or more)

binder="F7.33.24-H6 (scFv, not shown: small tags and cut ends, also called S009-F7.33.24 humanized antibody VH1a + VL3) scFv: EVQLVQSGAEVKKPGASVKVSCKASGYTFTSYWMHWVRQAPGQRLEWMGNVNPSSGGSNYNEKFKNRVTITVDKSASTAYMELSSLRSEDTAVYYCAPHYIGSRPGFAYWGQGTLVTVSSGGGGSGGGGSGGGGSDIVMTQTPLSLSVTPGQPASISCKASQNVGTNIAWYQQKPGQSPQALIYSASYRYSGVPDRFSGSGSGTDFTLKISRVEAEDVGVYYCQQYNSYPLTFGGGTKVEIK" assigned_category=c1
binder="F7.33.24-H4 (scFv, not shown: small tags and cut ends, also called S009-F7.33.24 humanized antibody VH1a + VL1) scFv: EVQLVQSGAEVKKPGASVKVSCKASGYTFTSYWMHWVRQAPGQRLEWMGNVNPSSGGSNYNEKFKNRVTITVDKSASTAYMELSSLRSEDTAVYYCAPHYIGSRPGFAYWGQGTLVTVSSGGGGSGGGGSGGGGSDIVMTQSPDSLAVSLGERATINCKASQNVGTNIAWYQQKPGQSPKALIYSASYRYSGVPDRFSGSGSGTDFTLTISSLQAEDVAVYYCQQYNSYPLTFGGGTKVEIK" assigned_category=c3
binder="F7.33.24-H11 (scFv, not shown: small tags and cut ends, also called S009-F7.33.24 humanized antibody VH2a + VL2) scFv: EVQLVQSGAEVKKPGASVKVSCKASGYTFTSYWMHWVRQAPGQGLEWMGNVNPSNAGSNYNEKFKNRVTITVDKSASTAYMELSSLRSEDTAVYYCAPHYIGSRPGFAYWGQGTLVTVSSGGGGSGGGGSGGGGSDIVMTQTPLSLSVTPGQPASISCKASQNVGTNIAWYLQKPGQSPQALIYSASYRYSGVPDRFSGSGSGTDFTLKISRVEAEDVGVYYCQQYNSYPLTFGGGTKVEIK" assigned_category=c1

Consider F7.33.24-H8 (scFv, not shown: small tags and cut ends, also called S009-F7.33.24 humanized antibody VH2 + VL2) scFv: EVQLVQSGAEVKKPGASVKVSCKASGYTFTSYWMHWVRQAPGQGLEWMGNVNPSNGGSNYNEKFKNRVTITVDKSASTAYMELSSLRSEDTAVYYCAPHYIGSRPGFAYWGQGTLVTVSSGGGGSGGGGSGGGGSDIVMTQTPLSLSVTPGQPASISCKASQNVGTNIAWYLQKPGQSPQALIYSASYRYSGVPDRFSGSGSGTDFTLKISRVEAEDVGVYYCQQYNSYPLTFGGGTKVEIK . To which EC50 class does it belong?
c2

Field: class (EC50) — entry: F7.33.24-H1 (scFv, not shown: small tags and cut ends, also called S009-F7.33.24 humanized antibody VH1 + VL1) scFv: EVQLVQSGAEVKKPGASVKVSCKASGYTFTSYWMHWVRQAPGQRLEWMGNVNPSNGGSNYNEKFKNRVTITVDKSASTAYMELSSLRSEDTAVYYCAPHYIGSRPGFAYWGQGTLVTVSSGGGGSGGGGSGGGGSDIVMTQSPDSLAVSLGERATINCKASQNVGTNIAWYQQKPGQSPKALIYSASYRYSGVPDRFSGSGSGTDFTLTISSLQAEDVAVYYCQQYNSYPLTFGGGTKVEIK
c2

Kindly identify the class of F7.33.24-H3 (scFv, not shown: small tags and cut ends, also called S009-F7.33.24 humanized antibody VH1 + VL3) scFv: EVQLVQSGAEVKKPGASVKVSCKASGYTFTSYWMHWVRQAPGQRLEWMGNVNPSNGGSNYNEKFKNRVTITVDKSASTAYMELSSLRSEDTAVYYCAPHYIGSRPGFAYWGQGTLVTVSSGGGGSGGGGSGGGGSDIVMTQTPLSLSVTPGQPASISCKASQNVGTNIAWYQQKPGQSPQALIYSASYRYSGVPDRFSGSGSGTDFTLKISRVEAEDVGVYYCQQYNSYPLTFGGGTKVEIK .
c3
